Can you tell me IC50 for the items I'm about to list?
- system_under_test: human GluN1/GluN2B NMDA receptors (Homo sapiens, UniProt Q05586+Q13224)
- Sequence (Q13224 27-1484, other chains not shown): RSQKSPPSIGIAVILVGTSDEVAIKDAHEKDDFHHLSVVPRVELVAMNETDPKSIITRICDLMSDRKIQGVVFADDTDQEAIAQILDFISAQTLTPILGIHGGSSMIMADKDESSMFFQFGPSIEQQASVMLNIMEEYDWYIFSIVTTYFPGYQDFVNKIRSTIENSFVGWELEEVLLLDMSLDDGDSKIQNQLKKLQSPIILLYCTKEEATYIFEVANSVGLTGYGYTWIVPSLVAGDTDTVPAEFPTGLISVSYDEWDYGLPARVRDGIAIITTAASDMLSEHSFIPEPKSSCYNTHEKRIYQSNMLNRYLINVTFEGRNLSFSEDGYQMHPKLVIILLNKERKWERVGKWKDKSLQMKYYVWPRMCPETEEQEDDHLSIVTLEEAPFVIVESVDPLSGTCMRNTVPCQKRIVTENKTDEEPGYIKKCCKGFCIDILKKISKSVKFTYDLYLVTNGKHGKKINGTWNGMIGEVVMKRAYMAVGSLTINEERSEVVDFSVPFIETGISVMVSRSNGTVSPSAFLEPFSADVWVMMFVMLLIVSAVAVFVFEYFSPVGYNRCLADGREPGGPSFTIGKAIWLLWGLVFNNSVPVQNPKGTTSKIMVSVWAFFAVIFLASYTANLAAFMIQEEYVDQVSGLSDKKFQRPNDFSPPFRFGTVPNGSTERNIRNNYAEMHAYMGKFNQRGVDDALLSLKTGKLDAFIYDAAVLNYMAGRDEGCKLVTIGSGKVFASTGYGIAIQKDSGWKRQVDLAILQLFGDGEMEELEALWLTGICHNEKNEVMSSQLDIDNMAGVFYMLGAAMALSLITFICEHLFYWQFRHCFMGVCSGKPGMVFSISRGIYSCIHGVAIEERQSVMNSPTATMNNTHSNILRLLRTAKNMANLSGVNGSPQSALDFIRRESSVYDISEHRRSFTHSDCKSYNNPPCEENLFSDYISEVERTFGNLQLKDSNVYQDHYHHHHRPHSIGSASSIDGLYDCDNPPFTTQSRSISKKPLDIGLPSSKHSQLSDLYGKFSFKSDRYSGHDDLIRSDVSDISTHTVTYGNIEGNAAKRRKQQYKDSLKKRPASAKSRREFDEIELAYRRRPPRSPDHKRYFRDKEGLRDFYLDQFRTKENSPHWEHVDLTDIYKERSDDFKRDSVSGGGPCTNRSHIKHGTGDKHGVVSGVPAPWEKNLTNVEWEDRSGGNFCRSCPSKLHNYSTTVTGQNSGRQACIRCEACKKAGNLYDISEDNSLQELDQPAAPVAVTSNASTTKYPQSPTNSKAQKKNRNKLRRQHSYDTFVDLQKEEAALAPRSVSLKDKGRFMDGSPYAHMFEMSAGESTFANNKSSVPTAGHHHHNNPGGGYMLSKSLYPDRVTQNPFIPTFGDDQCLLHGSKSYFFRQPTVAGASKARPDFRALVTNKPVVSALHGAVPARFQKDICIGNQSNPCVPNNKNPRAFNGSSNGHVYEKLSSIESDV
- assay_name: Cell-based calcium flux (FLIPR) assay on cloned human NR1/NR2B ion channels expressed in mammalian cells
- measurement_parameters: standard assay; human GluN1/GluN2B, calcium flux (FLIPR), glutamate ~EC80
Supply the numeric figure in µM, leaving out any unit text.

Which IC50 is reported with human GluN1/GluN2B NMDA receptors (Homo sapiens, UniProt Q05586+Q13224) for this entry: `Cc1cnc(OCc2cn(-c3ccc(Cl)c(OC(F)F)c3)nn2)nc1` ?
0.002

Which IC50 is reported with human GluN1/GluN2B NMDA receptors (Homo sapiens, UniProt Q05586+Q13224) for this entry: `CCc1cnc(OCc2cn(-c3ccccc3C)nn2)nc1` ?
1.46

Which IC50 is reported with human GluN1/GluN2B NMDA receptors (Homo sapiens, UniProt Q05586+Q13224) for this entry: `Cc1cnc(OCc2cn(-c3cccc(C(F)F)c3)nn2)nc1C` ?
0.006

Which IC50 is reported with human GluN1/GluN2B NMDA receptors (Homo sapiens, UniProt Q05586+Q13224) for this entry: `Cc1cnc(OCc2cn(-c3ccnc(Br)c3)nn2)nc1` ?
0.172

Which IC50 is reported with human GluN1/GluN2B NMDA receptors (Homo sapiens, UniProt Q05586+Q13224) for this entry: `FC(F)Oc1cc(-n2cc(COc3ncc(Cl)cn3)nn2)ccc1Cl` ?
0.002

Which IC50 is reported with human GluN1/GluN2B NMDA receptors (Homo sapiens, UniProt Q05586+Q13224) for this entry: `Cc1cnc(OCc2cn(-c3ccc4c(c3)CCC4)nn2)nc1` ?
0.02

Which IC50 is reported with human GluN1/GluN2B NMDA receptors (Homo sapiens, UniProt Q05586+Q13224) for this entry: `COCc1ccnc(OCc2cn(-c3cccc(C(C)(F)F)c3)nn2)n1` ?
0.008

Which IC50 is reported with human GluN1/GluN2B NMDA receptors (Homo sapiens, UniProt Q05586+Q13224) for this entry: `Cc1cc(C)nc(OCc2cn(-c3ccc(F)c(Br)c3)nn2)n1` ?
0.082

Which IC50 is reported with human GluN1/GluN2B NMDA receptors (Homo sapiens, UniProt Q05586+Q13224) for this entry: `FC(F)Oc1cc(-n2cc(COc3ccncn3)nn2)ccc1Cl` ?
0.879

Which IC50 is reported with human GluN1/GluN2B NMDA receptors (Homo sapiens, UniProt Q05586+Q13224) for this entry: `CC(F)(F)c1cccc(-n2cc(COc3ncc(C4CC4)cn3)nn2)c1` ?
0.015

Which IC50 is reported with human GluN1/GluN2B NMDA receptors (Homo sapiens, UniProt Q05586+Q13224) for this entry: `COc1cnc(OCc2cn(-c3ccc(OC(F)F)cc3)nn2)nc1` ?
0.098

Which IC50 is reported with human GluN1/GluN2B NMDA receptors (Homo sapiens, UniProt Q05586+Q13224) for this entry: `Cc1cc(-n2cc(CNc3ncc(Cl)c(C)n3)nn2)ccc1F` ?
0.051

Which IC50 is reported with human GluN1/GluN2B NMDA receptors (Homo sapiens, UniProt Q05586+Q13224) for this entry: `FC(F)(F)Oc1cccc(-n2cc(COc3ncc(Cl)cn3)nn2)c1` ?
0.05

Which IC50 is reported with human GluN1/GluN2B NMDA receptors (Homo sapiens, UniProt Q05586+Q13224) for this entry: `CCc1cnc(OCc2cn(-c3ccc(F)c(C(F)(F)F)c3)nn2)nc1` ?
0.01

Which IC50 is reported with human GluN1/GluN2B NMDA receptors (Homo sapiens, UniProt Q05586+Q13224) for this entry: `COc1cnc(OCc2cn(-c3ccc(Cl)c(C(F)F)c3)nn2)nc1` ?
0.001

Which IC50 is reported with human GluN1/GluN2B NMDA receptors (Homo sapiens, UniProt Q05586+Q13224) for this entry: `Cc1ccnc(OCc2cn(-c3ccc(Cl)c(OC(F)F)c3)nn2)n1` ?
0.002

Which IC50 is reported with human GluN1/GluN2B NMDA receptors (Homo sapiens, UniProt Q05586+Q13224) for this entry: `Nc1nc(OCc2cn(-c3ccc(Cl)c(OC(F)F)c3)nn2)ncc1F` ?
0.006

Which IC50 is reported with human GluN1/GluN2B NMDA receptors (Homo sapiens, UniProt Q05586+Q13224) for this entry: `Cc1cnc(OCc2cn(-c3ccc(Br)c(C)n3)nn2)nc1` ?
2.91

Which IC50 is reported with human GluN1/GluN2B NMDA receptors (Homo sapiens, UniProt Q05586+Q13224) for this entry: `CC(F)(F)c1cc(-n2cc(COc3ncc(-c4cn[nH]c4)cn3)nn2)ccc1F` ?
0.166

Which IC50 is reported with human GluN1/GluN2B NMDA receptors (Homo sapiens, UniProt Q05586+Q13224) for this entry: `FC(F)Oc1cccc(-n2cc(COc3ncccn3)nn2)c1` ?
0.788

Which IC50 is reported with human GluN1/GluN2B NMDA receptors (Homo sapiens, UniProt Q05586+Q13224) for this entry: `FC(F)c1cnc(NCc2cn(-c3ccc(Cl)c(C(F)F)c3)nn2)nc1` ?
0.24

Which IC50 is reported with human GluN1/GluN2B NMDA receptors (Homo sapiens, UniProt Q05586+Q13224) for this entry: `Cc1nc(OCc2cn(-c3cccc(C(F)(F)F)c3)nn2)ncc1Cl` ?
0.009

Which IC50 is reported with human GluN1/GluN2B NMDA receptors (Homo sapiens, UniProt Q05586+Q13224) for this entry: `CC(F)(F)c1cccc(-n2cc(COc3nccc(C(F)(F)F)n3)nn2)c1` ?
0.711

Which IC50 is reported with human GluN1/GluN2B NMDA receptors (Homo sapiens, UniProt Q05586+Q13224) for this entry: `COc1cc(-n2cc(COc3ncccn3)nn2)ccc1F` ?
1

Which IC50 is reported with human GluN1/GluN2B NMDA receptors (Homo sapiens, UniProt Q05586+Q13224) for this entry: `COc1cnc(OCc2cn(-c3ccc(F)c(CCCCl)c3)nn2)nc1` ?
0.136

Which IC50 is reported with human GluN1/GluN2B NMDA receptors (Homo sapiens, UniProt Q05586+Q13224) for this entry: `Fc1ccc(-n2cc(COc3ccc(C(F)(F)F)cn3)nn2)cc1C(F)F` ?
0.056

Which IC50 is reported with human GluN1/GluN2B NMDA receptors (Homo sapiens, UniProt Q05586+Q13224) for this entry: `CC(F)(F)c1cccc(-n2cc(COc3ncc(F)cn3)nn2)c1` ?
0.061

Which IC50 is reported with human GluN1/GluN2B NMDA receptors (Homo sapiens, UniProt Q05586+Q13224) for this entry: `CC(F)(F)c1cc(-n2cc(COc3ncc(Cl)cn3)nn2)ccc1F` ?
0.009

Which IC50 is reported with human GluN1/GluN2B NMDA receptors (Homo sapiens, UniProt Q05586+Q13224) for this entry: `CC(F)(F)c1cc(-n2cc(CNc3ncc(C4CC4)cn3)nn2)ccc1F` ?
0.104

Which IC50 is reported with human GluN1/GluN2B NMDA receptors (Homo sapiens, UniProt Q05586+Q13224) for this entry: `FC(F)c1cnc(OCc2cn(-c3cccc(C(F)F)c3)nn2)nc1` ?
0.027

Which IC50 is reported with human GluN1/GluN2B NMDA receptors (Homo sapiens, UniProt Q05586+Q13224) for this entry: `Cc1ccnc(NCc2cn(-c3ccc(Cl)c(C(F)F)c3)nn2)n1` ?
0.1

Which IC50 is reported with human GluN1/GluN2B NMDA receptors (Homo sapiens, UniProt Q05586+Q13224) for this entry: `CC(F)(F)c1cc(-n2cc(COc3ncc(Br)cn3)nn2)ccc1F` ?
0.009

Which IC50 is reported with human GluN1/GluN2B NMDA receptors (Homo sapiens, UniProt Q05586+Q13224) for this entry: `FC1(F)Oc2ccc(-n3cc(COc4ncc(Cl)cn4)nn3)cc2O1` ?
0.185

Which IC50 is reported with human GluN1/GluN2B NMDA receptors (Homo sapiens, UniProt Q05586+Q13224) for this entry: `Cc1cnc(OCc2cn(-c3ccc(F)c(C)c3F)nn2)nc1` ?
0.027

Which IC50 is reported with human GluN1/GluN2B NMDA receptors (Homo sapiens, UniProt Q05586+Q13224) for this entry: `COc1cnc(OCc2cn(-c3ccc(Cl)c(OC(F)F)c3)nn2)nc1` ?
0.003

Which IC50 is reported with human GluN1/GluN2B NMDA receptors (Homo sapiens, UniProt Q05586+Q13224) for this entry: `OCc1ccnc(OCc2cn(-c3ccc(Cl)c(OC(F)F)c3)nn2)n1` ?
0.008

Which IC50 is reported with human GluN1/GluN2B NMDA receptors (Homo sapiens, UniProt Q05586+Q13224) for this entry: `COc1cnc(NCc2cn(-c3ccc(Cl)c(C(F)F)c3)nn2)nc1` ?
0.03
